Biological target: Peroxisome proliferator-activated receptor gamma (Homo sapiens, UniProt P37231)
Test: In vitro binding affinity for human PPAR gamma
Reported IC50 values for a set of molecules
Give the number; nM is assumed, so skip it.

                  compound_structure_string  test_readout  measured
0  CCCc1cc2c(oc(=O)n2CC)c(CCC)c1O[C@H](C(=O)O)c1ccc(C(C)C)cc1          IC50        99
1  CCCc1cc(C(=O)CC)cc(CCC)c1O[C@@H](C(=O)O)c1ccc(C(C)C)cc1          IC50      2980
2  CCCc1cc2c(oc(=O)n2C)c(CCC)c1O[C@H](C(=O)O)c1ccc(C(C)C)cc1          IC50        85

IC50 measured on "CCCc1cc(C(=O)CC)cc(CCC)c1O[C@H](C(=O)O)c1ccc(C(F)(F)F)cc1" = 210

====

Target: Peroxisome proliferator-activated receptor gamma (Homo sapiens, UniProt P37231)
Assay: In vitro binding affinity for human PPAR gamma
Reported pIC50 values for a set of compounds
Entry type: numeric. Quantity: pIC50, the -log10 of concentration in molar units.

Completed entries (count: 5):
>>> df
                                   compound  test_readout  measured
0  CCCc1cc(C(=O)C(C)C)cc(CCC)c1OC(C(=O)O)c1ccccc1 (centres undefined)         pIC50      5.50
1  CCCc1cc(C(=O)C(C)(C)C)cc(CCC)c1OC(C(=O)O)c1ccccc1 (centres undefined)         pIC50      5.57
2  CCCc1cc2c(oc(=O)n2C(C)C)c(CCC)c1O[C@H](C(=O)O)c1ccccc1         pIC50      5.75
3  CCCc1cc2c(oc(=O)n2CC(F)(F)F)c(CCC)c1O[C@H](C(=O)O)c1ccc(C(C)C)cc1         pIC50      6.96
4  CCCc1cc(C(=O)CC)cc(CCC)c1O[C@H](C(=O)O)c1ccc(C(C)C)cc1         pIC50      7.12

Record "CCCc1c(O[C@H](C(=O)O)c2ccc(C(C)C)cc2)c(Cl)cc2c1oc(=O)n2CC" / Peroxisome proliferator-activated receptor gamma (Homo sapiens, UniProt P37231), pIC50 recorded as 6.28

Record "CCCc1cc(C(=O)CC)cc(CCC)c1O[C@H](C(=O)O)c1ccc(CC)cc1" / Peroxisome proliferator-activated receptor gamma (Homo sapiens, UniProt P37231), pIC50 recorded as 6.68

====

Reported IC50 values for a set of molecules
Target: Peroxisome proliferator-activated receptor alpha (Homo sapiens)
Experiment: In vitro binding affinity for human PPAR alpha
Give the number; nM is assumed, so skip it.

In [3]: df
Out[3]:
                                   molecule  measured
0  CCCc1cc(C(=O)CC)cc(CCC)c1O[C@H](C(=O)O)c1ccc(CC)cc1        64

Let us examine a further case.
IC50 measured on CCCc1cc(C(=O)CC)cc(C)c1OC(C(=O)O)c1ccc(C(C)C)cc1 (stereo unspecified) = 160

====

Biological target: Peroxisome proliferator-activated receptor alpha (Homo sapiens, UniProt Q07869)
Sequence (Q07869 whole entry): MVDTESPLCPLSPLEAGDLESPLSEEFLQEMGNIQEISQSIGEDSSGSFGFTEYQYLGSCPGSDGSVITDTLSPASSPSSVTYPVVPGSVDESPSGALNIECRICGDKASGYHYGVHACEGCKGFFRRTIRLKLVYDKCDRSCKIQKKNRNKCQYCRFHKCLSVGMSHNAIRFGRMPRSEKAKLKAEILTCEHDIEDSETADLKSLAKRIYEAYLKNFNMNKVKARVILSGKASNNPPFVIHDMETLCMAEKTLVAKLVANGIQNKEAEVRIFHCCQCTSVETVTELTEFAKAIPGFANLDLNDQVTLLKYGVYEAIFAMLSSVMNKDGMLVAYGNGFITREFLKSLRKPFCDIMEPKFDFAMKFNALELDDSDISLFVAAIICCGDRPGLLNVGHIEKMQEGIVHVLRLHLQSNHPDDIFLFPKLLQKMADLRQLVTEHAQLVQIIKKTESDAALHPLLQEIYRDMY
Experiment: Agonist response against human PPAR alpha in transactivation assay
Test readout: pEC50
Entry type: numeric. Quantity: pEC50, the -log10 of concentration in molar units.

Record "CCCc1cc(C(=O)CC)cc(CCC)c1O[C@H](C(=O)O)c1ccc(C(F)(F)F)cc1" / Peroxisome proliferator-activated receptor alpha (Homo sapiens, UniProt Q07869), pEC50 recorded as 6.60

Record CCCc1cc(C(=O)C(C)C)cc(CCC)c1OC(C(=O)O)c1ccccc1 (stereo not given) / Peroxisome proliferator-activated receptor alpha (Homo sapiens, UniProt Q07869), pEC50 recorded as 6.60

Record "CCCc1cc(C(=O)CC)cc(CCC)c1O[C@H](C(=O)O)c1ccc(OC(C)C)cc1" / Peroxisome proliferator-activated receptor alpha (Homo sapiens, UniProt Q07869), pEC50 recorded as 6.96

Record "CCCc1cc2c(oc(=O)n2CC)c(CCC)c1O[C@H](C(=O)O)c1ccc(C(C)C)cc1" / Peroxisome proliferator-activated receptor alpha (Homo sapiens, UniProt Q07869), pEC50 recorded as 6.54

Record "CCCc1cc2c(=O)n(C)oc2c(CCC)c1O[C@H](C(=O)O)c1ccccc1" / Peroxisome proliferator-activated receptor alpha (Homo sapiens, UniProt Q07869), pEC50 recorded as 6.17

====

Biological target: Peroxisome proliferator-activated receptor gamma (Homo sapiens, UniProt P37231)
Assay: In vitro binding affinity for human PPAR gamma
pIC50: −log10 of the molar value.
Test readout: pIC50

>>> df
                                   molecule                     target_or_test_system  measured
0  CCC(=O)c1cc(C)c(OC(C(=O)O)c2ccccc2)c(C)c1 (stereo not drawn)  Peroxisome proliferator-activated receptor gamma (Homo sapiens, UniProt P37231)    < 4.30

pIC50 measured on CCC(=O)c1cc(C(C)CC)c(OC(C(=O)O)c2ccccc2)c(C(C)CC)c1 (stereo not drawn) = < 4.30

pIC50 measured on CCC(=O)c1cc(Cl)c(OC(C(=O)O)c2ccccc2)c(Cl)c1 (stereo not drawn) = < 4.30

====

Reported EC50 values for a set of compounds
Biological target: Peroxisome proliferator-activated receptor gamma (Homo sapiens, UniProt P37231)
Sequence (P37231 whole entry): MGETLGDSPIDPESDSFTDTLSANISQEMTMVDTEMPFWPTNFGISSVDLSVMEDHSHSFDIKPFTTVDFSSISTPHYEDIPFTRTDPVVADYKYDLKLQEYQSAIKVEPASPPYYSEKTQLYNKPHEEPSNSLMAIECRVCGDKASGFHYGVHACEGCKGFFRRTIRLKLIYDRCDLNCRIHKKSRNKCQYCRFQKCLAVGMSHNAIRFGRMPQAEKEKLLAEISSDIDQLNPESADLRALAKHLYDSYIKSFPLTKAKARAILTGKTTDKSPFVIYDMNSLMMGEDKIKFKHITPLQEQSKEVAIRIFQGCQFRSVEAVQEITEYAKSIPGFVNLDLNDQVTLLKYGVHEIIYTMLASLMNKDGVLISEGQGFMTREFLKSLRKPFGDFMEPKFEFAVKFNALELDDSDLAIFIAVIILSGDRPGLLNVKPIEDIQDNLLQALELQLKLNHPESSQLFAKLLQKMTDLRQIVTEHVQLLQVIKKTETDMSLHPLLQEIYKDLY
Test: Agonist response against human PPAR gamma in transactivation assay
Type: functional
A complete answer gives the number followed by the unit.

Completed entries (count: 2):
>>> print(df.to_string())
                  compound_structure_string  measured
0  CCCc1cc2c(oc(=O)n2CC)c(CCC)c1O[C@H](C(=O)O)c1ccc(C(C)C)cc1    120 nM
1  CCCc1cc2c(oc(=O)n2CCC)c(CCC)c1O[C@H](C(=O)O)c1ccc(C(C)C)cc1    120 nM

Record "CCCc1cc2c(=O)n(C)oc2c(CCC)c1O[C@H](C(=O)O)c1ccc(C(C)C)cc1" / Peroxisome proliferator-activated receptor gamma (Homo sapiens, UniProt P37231), EC50 recorded as 390 nM

====

Molecular target: Peroxisome proliferator-activated receptor alpha (Homo sapiens)
Assay: In vitro binding affinity for human PPAR alpha
pIC50: −log10 of the molar value.
Decide by pIC50: equal to or exceeding 7 means 1.0, less means 0.0.

Field: example entries. Status: answers known.
                                   compound  qualitative_label
0  CCCc1cc(C(=O)CC)cc(CCC)c1NC(C(=O)O)c1ccc(C(C)C)cc1 (centres undefined)                0.0
1  CCCc1cc2c(=O)n(C)oc2c(CCC)c1O[C@H](C(=O)O)c1ccccc1                0.0
2  CCCc1cc(C(=O)CC)cc(CCC)c1O[C@H](C(=O)O)c1ccc(OC(C)C)cc1                1.0
3  CCCc1cc2c(oc(=O)n2C)c(CCC)c1O[C@H](C(=O)O)c1ccc(C(C)C)cc1                0.0
4  CCCc1cc(C(=O)CC)cc(CCC)c1CC(C(=O)O)c1ccc(C(C)C)cc1 (centres undefined)                0.0
5  CCCc1cc(C(=O)CC)cc(CCC)c1O[C@H](C(=O)O)c1ccc(C(C)C)cc1                1.0
6  CCCc1cc2c(=O)n(C3CCCCC3)oc2c(CCC)c1O[C@H](C(=O)O)c1ccc(C(C)C)cc1                0.0
7  CCCc1cc(C(=O)CC)cc(CCC)c1O[C@@H](C(=O)O)c1ccc(C(C)C)cc1                0.0
8  CCC(=O)c1cc(Cl)c(OC(C(=O)O)c2ccccc2)c(Cl)c1 (centres undefined)                0.0
9  CCCc1cc(C(=O)c2ccccc2)cc(CCC)c1OC(C(=O)O)c1ccccc1 (centres undefined)                0.0

IN: Quick check, pIC50 >= 7? "CCCc1cc2c(=O)n(C(C)C)oc2c(CCC)c1O[C@H](C(=O)O)c1ccc(C(C)C)cc1"
OUT: 0.0

IN: Quick check, pIC50 >= 7? "CCCc1cc2c(=O)n(C(C)C)oc2c(CCC)c1O[C@H](C(=O)O)c1ccc(CC(C)C)cc1"
OUT: 0.0

IN: Quick check, pIC50 >= 7? "CCCc1cc(C(=O)CC)cc(Cl)c1O[C@H](C(=O)O)c1ccc(C(C)C)cc1"
OUT: 0.0

IN: Quick check, pIC50 >= 7? "CCCc1cc2c(oc(=O)n2CC)c(CCC)c1O[C@H](C(=O)O)c1ccc(Cl)cc1"
OUT: 0.0
